test system: MS-1 (Small Cell Lung Carcinoma); assay: Bliss excess, mean over the matrix (fraction); higher = more synergy;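 further: after 72 h of two-drug dosing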
Response key: Criterion met means Bliss excess >= -0.02; Criterion not met means Bliss excess < -0.02.

{"COMPOUND": "CC1(C)CCC(CN2CCN(c3ccc(C(=O)NS(=O)(=O)c4ccc(NCC5CCOCC5)c([N+](=O)[O-])c4)c(Oc4cnc5[nH]ccc5c4)c3)CC2)=C(c2ccc(Cl)cc2)C1 [Venetoclax] + C[C@@H]1COCCN1C2=NC(=NC(=C2)C3(CC3)[S@](=N)(=O)C)C4=C5C=CNC5=NC=C4 [AZD6738] (first compound max 1 µM, 7x7, partner max 10 µM)", "MEASUREMENT TARGET": "MS-1 (Small Cell Lung Carcinoma)", "GROUP LABEL": "Criterion met"}
{"COMPOUND": "Cc1cc2ncnn2cc1Nc1ncc2c(n1)n(C1CCOCC1)c(=O)n2C [AZD7648] + C=CCn1c(=O)c2cnc(Nc3ccc(N4CCN(C)CC4)cc3)nc2n1-c1cccc(C(C)(C)O)n1 [AZD1775] (first compound max 10 µM, partner max 1 µM)", "MEASUREMENT TARGET": "MS-1 (Small Cell Lung Carcinoma)", "GROUP LABEL": "Criterion not met"}
{"COMPOUND": "C[C@@H]1COCCN1c1cc(C2([S@](C)(=N)=O)CC2)nc(-c2ccnc3[nH]ccc23)n1 [AZD6738] + C1CC(C1)(C(=O)[O-])C(=O)[O-].N.N.[Pt+2] [Carboplatin] (first compound max 10 µM, 7x7, partner max 10 µM)", "MEASUREMENT TARGET": "MS-1 (Small Cell Lung Carcinoma)", "GROUP LABEL": "Criterion not met"}
{"COMPOUND": "CN(CCO)CC[C@H](CSc1ccccc1)Nc1ccc(S(=O)(=O)NC(=O)c2ccc(N3CCC([C@@H](O)c4ccccc4-c4ccc(Cl)cc4)CC3)cc2)cc1S(=O)(=O)C(F)(F)F [AZD4320] + C1CN(CCC1(C(=O)N[C@@H](CCO)C2=CC=C(C=C2)Cl)N)C3=NC=NC4=C3C=CN4 [Capivasertib] (first compound max 1 µM, 7x7, partner max 3 µM)", "MEASUREMENT TARGET": "MS-1 (Small Cell Lung Carcinoma)", "GROUP LABEL": "Criterion met"}
{"COMPOUND": "COc1nnc2ccc(N3CCC(c4ccc(OCCN5CCN(C)C(=O)[C@H]5C)cc4)CC3)nn12 [AZD5153] + Cc1c2c(nn1C)CSCc1cc(n(C)n1)CSc1cc(c3ccccc3c1)OCCCc1c(C(=O)O)n(C)c3c-2c(Cl)ccc13 [AZD5991] (first compound max 1 µM, 7x7, partner max 1 µM)", "MEASUREMENT TARGET": "MS-1 (Small Cell Lung Carcinoma)", "GROUP LABEL": "Criterion met"}
{"COMPOUND": "C[C@@H](Nc1cc(F)cc(F)c1)c1cc(C(=O)N(C)C)cc2c(=O)cc(N3CCOCC3)oc12 [AZD8186] + C1CN(CCC1(C(=O)N[C@@H](CCO)C2=CC=C(C=C2)Cl)N)C3=NC=NC4=C3C=CN4 [AZD5363] (first compound max 10 µM, 7x7, partner max 10 µM)", "MEASUREMENT TARGET": "MS-1 (Small Cell Lung Carcinoma)", "GROUP LABEL": "Criterion not met"}
{"COMPOUND": "COc1cccc(OCCCN)c1-c1cc(Nc2cnc(C#N)cn2)n[nH]1 [Prexasertib] + C=CCn1c(=O)c2cnc(Nc3ccc(N4CCN(C)CC4)cc3)nc2n1-c1cccc(C(C)(C)O)n1 [AZD1775] (first compound max 1 µM, partner max 1 µM)", "MEASUREMENT TARGET": "MS-1 (Small Cell Lung Carcinoma)", "GROUP LABEL": "Criterion met"}
